System: K-562 leukemia
ASSAY_METHOD_TEXT: NCI-60 one-dose screen, 48 h (100 = growth as untreated, 0 = no growth, -100 = all killed)
CONDITION_PARAMETERS: 10 µM unless noted
About 83,000 compounds went through this panel and 20% of them were active in at least one assay; those are over-represented in the sample as a whole.
Give growth for every item shown.
Give bare numbers, in %.

COc1ccc(/C=C(/c2ccccc2)[N+](=O)[O-])cc1 :: -7.82
C=CCn1c(SCC(=O)Nc2ccc(C(=O)/C=C/c3cc(OC)c(OC)c(OC)c3)cc2)nnc1-c1cc(OC)c(OC)c(OC)c1 :: 6.9
O=C1/C(=C\c2cn(Cc3ccccc3)c3ccc(Br)cc23)c2ccccc2N1c1c(Cl)cccc1Cl :: 109

For each of the compounds below, note its growth.
1. COc1cc(NCCCN(CC(C)C)CC(C)C)c2ncccc2c1
2. [2H]C1([2H])NC([2H])([2H])C([2H])([2H])N(c2ccc(Nc3ncc4cc(C(=O)N(C)C)n(C5CCCC5)c4n3)nc2)C1([2H])[2H]

Output:
1: 110; 2: 64.6

For each of the compounds below, note its growth.
1. CN(C)C(C(N)=O)c1ccc(Cl)cc1 (configuration not stated)
2. COc1cnccc1-c1nc2ccc3[nH]ncc3c2c2c1CCCC2

Output:
98.8
42.2

====

System: SNB-19 CNS
ASSAY_METHOD_TEXT: NCI-60 one-dose screen, 48 h (100 = growth as untreated, 0 = no growth, -100 = all killed)
CONDITION_PARAMETERS: 10 µM unless noted
Compounds without any hit were thinned out: in the full panel of roughly 83,000, 20% have a hit.
Give growth for every item shown.
Numbers only, in %.

C[C@H]1[C@H](C)CC[C@]2(CO)CC[C@]3(C)C(=CC[C@@H]4[C@@]5(C)Cc6c([nH]c7ccccc67)C(C)(C)[C@@H]5CC[C@]43C)[C@H]12 :: 80.8
CN1CCN(c2cc(F)c(NC3=C(Cl)C(=O)c4ncccc4C3=O)c(F)c2)CC1 :: 96.3
O=C(/C=C/c1ccc[nH]1)c1ccc(-n2ccc(C(F)(F)F)n2)cc1 :: 75.5

For each of the compounds below, note its growth.
1. O=C(Nc1ccc(F)cc1)c1c(NC(=O)C(F)(F)F)sc2c1CCCCC2
2. CCc1nc(C)cn1C(=O)OCc1nc2nc(Cl)nc(N3CCOCC3)c2[nH]1
3. NC(=O)c1ccc[n+](CC(=O)N2CCN(c3cc4c(cc3F)c(=O)c(C(=O)O)cn4C3CC3)CC2)c1
4. C/C(=C(/c1ccccc1)c1ccc(OCC(O)CNCCN2CCOCC2)cc1)c1ccccc1 (stereo not drawn)

Output:
[13.3, 55.8, 92.6, 91.2]

Quick note, growth for "CC(C)(C)CC(C)(C)Nc1c(-c2ccc3c(c2)OCO3)nc2cnccn12" landed at 90.9

====

Give growth for every item shown.
Tested on: HCT-116 colon
ASSAY_METHOD_TEXT: NCI-60 one-dose screen, 48 h (100 = growth as untreated, 0 = no growth, -100 = all killed)
CONDITION_PARAMETERS: 10 µM unless noted
Experimental: Growth inhibition of the HCT-116 human tumor cell line is measured as a screen for anti-cancer activity. Cells are grown in 96 well plates and exposed to the test compound for 48 hours. Compounds are tested at a single concentration, which is 10^-5 M for most compounds. The reported endpoint is percent growth (GI% or GIPRCNT), where numbers from 0 - 100% represent growth inhibition, and numbers from -100% - 0 represent cell death. For example, a value of 40 represents 60% growth inhibition. […]
The panel holds about 83,000 compounds, 20% with a hit somewhere; the sample as a whole holds those more often. Active and inactive are the calls of the source. The calls were made as follows: active = growth percent below 10; inactive = the rest.

CCC(C)C(N)C(=O)NNc1n[nH]c(=S)n1N (stereo not given) :: 108% (inactive)
c1ccc2c(-c3c4ccsc4cc4[nH]c5ccccc5c34)c[nH]c2c1 :: 17.5% (inactive)
NC(=O)c1ncn(C2OC(CO)C(O)C2O)n1 (stereo not given) :: 57.5% (inactive)
Clc1cc(Cl)cc(N2N=C(c3cccc(Nc4ccncc4)c3)CC2c2ccc3c(c2)OCO3)c1 (stereo not given) :: 65.3% (inactive)
N#Cc1cc(-c2nc3ccccc3s2)c(=O)n(NS(=O)(=O)c2ccc(Cl)cc2)c1N :: 98.5% (inactive)
COc1ccc(-c2nc(SC)nc(N3CCOCC3)c2C#N)cc1 :: 103% (inactive)
Nc1nnc2cc(Cl)ccc2n1 :: 101% (inactive)
O=[N+]([O-])c1cccc(-c2nc(-c3ccc(Cl)cc3Cl)cn2-c2ccccc2)c1 :: -93.2% (active)
CS(=O)(=O)OCCN(CCOS(C)(=O)=O)c1ccc(/C=N/Nc2ccc([N+](=O)[O-])cc2[N+](=O)[O-])cc1 :: 83.9% (inactive)
CC[C@@]12C=CCN3CC[C@]4(c5cc(NC(=O)COc6cc(OCC(=O)Nc7cc8c(cc7OC)N(C)[C@H]7[C@@](O)(C(=O)OC)[C@H](OC(C)=O)[C@]9(CC)C=CCN%10CC[C@]87[C@@H]%109)cc7oc(-c8ccccc8)cc(=O)c67)c(OC)cc5N(C)[C@@H]4[C@](O)(C(=O)OC)[C@H]1OC(C)=O)[C@H]32 :: 0.866% (active)

For each of the compounds below, note its growth.
1. CN1CCN(C(=O)OCc2nc3c(N4CCOCC4)nc(-c4ccccc4)nc3n2C)CC1
2. O=C(Cc1ccc(/C=C/C(=O)c2ncc[nH]2)cc1)Nc1ccc(C(F)(F)F)cc1
3. CC[N+](CC)(CCCC(C)[N+]1(Cc2ccccc2)C(C)=CC=C1C)Cc1ccccc1 (stereo not given)
4. COc1cc(C2NC(c3cc(OC)c(OC)c(OC)c3)C(C#N)(C#N)C2(C#N)C#N)cc(OC)c1OC (stereo not given)
5. O=C(/C=C/c1ccc[nH]1)c1ccc(-n2ccc(C(F)(F)F)n2)cc1
6. O=C1OC(=O)C2C1CC=CC2c1ccccc1 (stereo not given)
7. C=C(C)[C@@H]1CC[C@]2(C=O)CC[C@]3(C)[C@H](CC[C@@H]4[C@@]5(C)CCCNC(C)(C)[C@@H]5CC[C@]43C)[C@@H]12
8. CC(=O)c1c(-c2ccc(OC(F)(F)F)cc2)nc2ccccn12

Output:
1. -71.6% (active)
2. -58.7% (active)
3. 47.6% (inactive)
4. 91.1% (inactive)
5. 87.3% (inactive)
6. 97.3% (inactive)
7. 25.4% (inactive)
8. 80.8% (inactive)

For each of the compounds below, note its growth.
1. Cc1c2c(cc[n+]1Cc1ccccc1)c1ccc(OCC3CCCCC3)cc1n2CC1CCCCC1
2. Fc1ccc(C2CC(c3cccc(Nc4ccncc4)c3)=NN2c2ccccc2)cc1 (stereo not given)
3. CC(=O)c1cccc(NS(=O)(=O)c2cccc(C(=O)Nc3ccc(Br)cc3)c2)c1
4. Fc1ccc(C2CC(c3cccc(Nc4ccncc4)c3)=NN2c2ccc(Cl)cc2)cc1 (stereo not given)
5. COc1ccc(Cn2nc3c(c2-c2cc(OC)c(OC)c(OC)c2)-c2oncc2CC3)cc1
6. COc1ccc(C2CC(n3nnnc3-c3ccccc3)=NN2)cc1 (stereo not given)
7. ClCC1(Cn2cnc3c(Cl)nc(Cl)nc32)COC1
8. COc1ccc2c(c1)c(CC(=O)NCCOCCOCC(=O)Nc1ccc(OC)c(C(N)=O)c1O)c(C)n2C(=O)c1ccc(Cl)cc1

Output:
["-98.3% (active)", "61.9% (inactive)", "39.9% [25 µM] (inactive)", "101% (inactive)", "81.4% (inactive)", "50.7% (inactive)", "13.7% (inactive)", "93.9% (inactive)"]

These measurements were taken from PubChem BioAssay (NCI).
